Experiment: Evaluation of solvent solubility of water-insoluble coloring compound (visual)
Type: physicochemical
Details: organic solvent or mixture, thermodynamic from solid, 30 mg in 0.7 mL chloroform, room temperature, read-out: Solubility Chloroform
Consider the following molecules; for each one, report its solubility.

Give the measured solubility for CCCCC(CC)CN(CC(CC)CCCC)C(=O)c1ccc(/N=N/c2c(O)[nH]c(=O)c(C#N)c2C)cc1 (stereo not drawn) [compound 2, reference compound]
< 42.9 mg/mL

Give the measured solubility for CCCCC(CC)CN(CC(CC)CCCC)C(=O)c1ccc(/N=N/c2c(O)[nH]c(=O)c(C(=O)OCC)c2C)cc1 (stereo not drawn) [Compound 18]
> 42.9 mg/mL

Give the measured solubility for CCCCC(CC)CN(CC(CC)CCCC)C(=O)c1ccccc1/N=N/c1c(O)[nH]c(=O)c(C(=O)OCC)c1C (stereo not drawn) [Compound 1]
> 42.9 mg/mL

Give the measured solubility for CCOC(=O)c1c(C)c(/N=N/c2ccccc2C(=O)N(C2CCCCC2)C2CCCCC2)c(O)[nH]c1=O [Compound 28]
> 42.9 mg/mL

Give the measured solubility for CCCCC(CC)CN(CC(CC)CCCC)S(=O)(=O)c1ccccc1/N=N/c1c(O)[nH]c(=O)c(C(=O)OCC)c1C (stereo not drawn) [Compound 4]
> 42.9 mg/mL

Give the measured solubility for CCCCCc1c(/N=N/c2ccccc2C(=O)N(CC(CC)CCCC)CC(CC)CCCC)c(O)[nH]c(=O)c1C(=O)N1CCCCC1 (stereo not drawn) [Compound 26]
> 42.9 mg/mL

Give the measured solubility for CCCCC(CC)CN(CC(CC)CCCC)C(=O)c1cccc(/N=N/c2c(O)[nH]c(=O)c(C(=O)OCC)c2C)c1 (stereo not drawn) [Compound 11]
> 42.9 mg/mL

Give the measured solubility for CCCCC(CC)CN(CC(CC)CCCC)S(=O)(=O)c1ccc(/N=N/c2c(O)[nH]c(=O)c(C#N)c2C)cc1 (stereo not drawn) [compound 1, reference compound]
< 42.9 mg/mL

Give the measured solubility for CCCCC(CC)CN(CC(CC)CCCC)C(=O)c1ccccc1/N=N/c1c(O)[nH]c(=O)c(C(=O)NC(C)(C)C)c1C (stereo not drawn) [Compound 23]
> 42.9 mg/mL

----------
Test: Evaluation of solvent solubility of water-insoluble coloring compound (visual)
Format: physicochemical
Details: organic solvent or mixture, thermodynamic from solid, 30 mg in 0.7 mL methanol, room temperature, read-out: Solubility Methanol
observation.type: solubility

Give the measured solubility for CCCCC(CC)CN(CC(CC)CCCC)C(=O)c1ccccc1/N=N/c1c(O)[nH]c(=O)c(C(=O)OCC)c1C (stereo not drawn)
> 42.9 mg/mL

Give the measured solubility for CCCCC(CC)CN(CC(CC)CCCC)S(=O)(=O)c1ccc(/N=N/c2c(O)[nH]c(=O)c(C#N)c2C)cc1 (stereo not drawn) [compound 1, reference compound]
< 42.9 mg/mL

Give the measured solubility for CCCCC(CC)CN(CC(CC)CCCC)C(=O)c1cccc(/N=N/c2c(O)[nH]c(=O)c(C(=O)OCC)c2C)c1 (stereo not drawn)
> 42.9 mg/mL

Give the measured solubility for CCCCCc1c(/N=N/c2ccccc2C(=O)N(CC(CC)CCCC)CC(CC)CCCC)c(O)[nH]c(=O)c1C(=O)N1CCCCC1 (stereo not drawn)
> 42.9 mg/mL

Give the measured solubility for CCCCC(CC)CN(CC(CC)CCCC)C(=O)c1ccc(/N=N/c2c(O)[nH]c(=O)c(C#N)c2C)cc1 (stereo not drawn) [compound 2, reference compound]
< 42.9 mg/mL

Give the measured solubility for CCCCC(CC)CN(CC(CC)CCCC)S(=O)(=O)c1ccccc1/N=N/c1c(O)[nH]c(=O)c(C(=O)OCC)c1C (stereo not drawn)
> 42.9 mg/mL

Give the measured solubility for CCCCC(CC)CN(CC(CC)CCCC)C(=O)c1ccc(/N=N/c2c(O)[nH]c(=O)c(C(=O)OCC)c2C)cc1 (stereo not drawn)
> 42.9 mg/mL

Give the measured solubility for "CCOC(=O)c1c(C)c(/N=N/c2ccccc2C(=O)N(C2CCCCC2)C2CCCCC2)c(O)[nH]c1=O"
> 42.9 mg/mL

Give the measured solubility for CCCCC(CC)CN(CC(CC)CCCC)C(=O)c1ccccc1/N=N/c1c(O)[nH]c(=O)c(C(=O)NC(C)(C)C)c1C (stereo not drawn)
> 42.9 mg/mL

----------
Test: Evaluation of solvent solubility of water-insoluble coloring compound (visual)
Type: physicochemical
Details: organic solvent or mixture, thermodynamic from solid, 30 mg in 0.7 mL ethyl acetate, room temperature, read-out: Solubility Ethyl acetate
observation.type: solubility

Give the measured solubility for CCCCC(CC)CN(CC(CC)CCCC)C(=O)c1ccccc1/N=N/c1c(O)[nH]c(=O)c(C(=O)NC(C)(C)C)c1C (stereo not drawn) [Compound 23]
> 42.9 mg/mL

Give the measured solubility for CCCCC(CC)CN(CC(CC)CCCC)C(=O)c1ccccc1/N=N/c1c(O)[nH]c(=O)c(C(=O)OCC)c1C (stereo not drawn) [Compound 1]
> 42.9 mg/mL

Give the measured solubility for CCCCC(CC)CN(CC(CC)CCCC)S(=O)(=O)c1ccc(/N=N/c2c(O)[nH]c(=O)c(C#N)c2C)cc1 (stereo not drawn) [compound 1, reference compound]
< 42.9 mg/mL

Give the measured solubility for CCCCC(CC)CN(CC(CC)CCCC)C(=O)c1ccc(/N=N/c2c(O)[nH]c(=O)c(C(=O)OCC)c2C)cc1 (stereo not drawn) [Compound 18]
> 42.9 mg/mL

Give the measured solubility for CCCCCc1c(/N=N/c2ccccc2C(=O)N(CC(CC)CCCC)CC(CC)CCCC)c(O)[nH]c(=O)c1C(=O)N1CCCCC1 (stereo not drawn) [Compound 26]
> 42.9 mg/mL

Give the measured solubility for CCOC(=O)c1c(C)c(/N=N/c2ccccc2C(=O)N(C2CCCCC2)C2CCCCC2)c(O)[nH]c1=O [Compound 28]
> 42.9 mg/mL

Give the measured solubility for CCCCC(CC)CN(CC(CC)CCCC)C(=O)c1ccc(/N=N/c2c(O)[nH]c(=O)c(C#N)c2C)cc1 (stereo not drawn) [compound 2, reference compound]
< 42.9 mg/mL

Give the measured solubility for CCCCC(CC)CN(CC(CC)CCCC)S(=O)(=O)c1ccccc1/N=N/c1c(O)[nH]c(=O)c(C(=O)OCC)c1C (stereo not drawn) [Compound 4]
> 42.9 mg/mL

Give the measured solubility for CCCCC(CC)CN(CC(CC)CCCC)C(=O)c1cccc(/N=N/c2c(O)[nH]c(=O)c(C(=O)OCC)c2C)c1 (stereo not drawn) [Compound 11]
> 42.9 mg/mL

----------
Experiment: Evaluation of solvent solubility of water-insoluble coloring compound (visual)
Format: physicochemical
Settings: organic solvent or mixture, thermodynamic from solid, 30 mg in 0.7 mL toluene, room temperature, read-out: Solubility Toluene
observation.type: solubility

Give the measured solubility for CCOC(=O)c1c(C)c(/N=N/c2ccccc2C(=O)N(C2CCCCC2)C2CCCCC2)c(O)[nH]c1=O [Compound 28]
> 42.9 mg/mL

Give the measured solubility for CCCCC(CC)CN(CC(CC)CCCC)C(=O)c1cccc(/N=N/c2c(O)[nH]c(=O)c(C(=O)OCC)c2C)c1 (stereo not drawn) [Compound 11]
> 42.9 mg/mL

Give the measured solubility for CCCCCc1c(/N=N/c2ccccc2C(=O)N(CC(CC)CCCC)CC(CC)CCCC)c(O)[nH]c(=O)c1C(=O)N1CCCCC1 (stereo not drawn) [Compound 26]
> 42.9 mg/mL

Give the measured solubility for CCCCC(CC)CN(CC(CC)CCCC)S(=O)(=O)c1ccc(/N=N/c2c(O)[nH]c(=O)c(C#N)c2C)cc1 (stereo not drawn) [compound 1, reference compound]
< 42.9 mg/mL

Give the measured solubility for CCCCC(CC)CN(CC(CC)CCCC)C(=O)c1ccccc1/N=N/c1c(O)[nH]c(=O)c(C(=O)NC(C)(C)C)c1C (stereo not drawn) [Compound 23]
> 42.9 mg/mL

Give the measured solubility for CCCCC(CC)CN(CC(CC)CCCC)C(=O)c1ccc(/N=N/c2c(O)[nH]c(=O)c(C(=O)OCC)c2C)cc1 (stereo not drawn) [Compound 18]
> 42.9 mg/mL

Give the measured solubility for CCCCC(CC)CN(CC(CC)CCCC)C(=O)c1ccccc1/N=N/c1c(O)[nH]c(=O)c(C(=O)OCC)c1C (stereo not drawn) [Compound 1]
> 42.9 mg/mL

Give the measured solubility for CCCCC(CC)CN(CC(CC)CCCC)S(=O)(=O)c1ccccc1/N=N/c1c(O)[nH]c(=O)c(C(=O)OCC)c1C (stereo not drawn) [Compound 4]
> 42.9 mg/mL

Give the measured solubility for CCCCC(CC)CN(CC(CC)CCCC)C(=O)c1ccc(/N=N/c2c(O)[nH]c(=O)c(C#N)c2C)cc1 (stereo not drawn) [compound 2, reference compound]
< 42.9 mg/mL
